Target: human muscarinic M4 receptor (Homo sapiens, UniProt P08173)
Construct: expressed in transfected cells
Sequence (P08173 whole entry): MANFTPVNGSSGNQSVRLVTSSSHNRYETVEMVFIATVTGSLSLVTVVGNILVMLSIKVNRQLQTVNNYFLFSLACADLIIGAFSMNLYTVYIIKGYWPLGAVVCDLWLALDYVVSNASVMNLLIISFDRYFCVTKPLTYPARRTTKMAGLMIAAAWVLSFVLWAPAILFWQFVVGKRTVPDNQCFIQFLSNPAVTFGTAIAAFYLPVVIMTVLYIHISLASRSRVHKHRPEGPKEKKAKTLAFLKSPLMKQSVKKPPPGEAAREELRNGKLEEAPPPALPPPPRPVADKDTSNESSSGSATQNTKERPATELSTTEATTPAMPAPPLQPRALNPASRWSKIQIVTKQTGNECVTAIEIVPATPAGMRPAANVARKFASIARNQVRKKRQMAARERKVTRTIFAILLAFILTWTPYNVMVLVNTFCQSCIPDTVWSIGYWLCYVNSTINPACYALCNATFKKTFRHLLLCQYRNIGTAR
Test: Alphascreen Surefire phospho-ERK1/2 functional assay, M4
Type: cell-based
Conditions: CHO cells stably expressing human M4; agonist 5 min, 37° C.; read-out: pEC50 M4 (converted)
EC50 strictly less than 200 nM = MET. Otherwise NOT MET.

These recorded examples may help you get a feel for the data.
>>> assigned_label("Cc1noc(N2CCCC(N3CCC(N4CC(F)(F)C[C@@H]4CO)CC3)CC2)n1 (single isomer, unassigned) [10-8 Isomer 1]")
"MET"
>>> assigned_label("Cc1noc(N2CCCC(N3CCC4(CC3)CNC(=O)O4)CC2)n1 (racemic) [10-3 Racemic mixture]")
"NOT MET"

Prompt: Consider Cc1noc(N2CCCC(N3CCC(n4cccn4)CC3)CC2)n1 (single isomer, unassigned) [10-1 Isomer 1] . Does its EC50 lie strictly below 200 nM?
Response: MET

Prompt: Consider Cc1noc(N2C3CCCC2CC(N2CCC4(CC2)CNC(=O)C4)C3)n1 (single isomer, unassigned) [8-2 Isomer 1] . Does its EC50 lie strictly below 200 nM?
Response: NOT MET

Prompt: Consider O=C1CC2(CCN(C3CC4CCC(C3)N4c3nc(C(F)(F)F)no3)CC2)CN1 (single isomer, unassigned) [12-3 Isomer 1] . Does its EC50 lie strictly below 200 nM?
Response: NOT MET

Prompt: Consider CC1(NC(=O)C2CCN(C3CC4CCC(C3)N4c3nc(C(F)(F)F)no3)CC2)CCC1 (single isomer, unassigned) [12-14 Isomer 1] . Does its EC50 lie strictly below 200 nM?
Response: NOT MET

Prompt: Consider Cc1noc(N2C3CCC2CC(N2CCC(C(=O)NCC4(C)CCC4)CC2)C3)n1 (single isomer, unassigned) [12-12 Isomer 2] . Does its EC50 lie strictly below 200 nM?
Response: NOT MET

Prompt: Consider CCOC(=O)[C@H]1[C@@H]2CN(C3CC4(CCN(c5nc(C)no5)C4)C3)C[C@@H]21 (single isomer, unassigned) [2-3 Isomer 2] . Does its EC50 lie strictly below 200 nM?
Response: NOT MET

Prompt: Consider CCN(CC)C(=O)[C@H]1[C@@H]2CN(C3CC4COCC(C3)N4c3nc(C)no3)C[C@@H]21 (single isomer, unassigned) [9-2 Isomer 2] . Does its EC50 lie strictly below 200 nM?
Response: NOT MET

Prompt: Consider Cc1noc(N2CCCC(N3CCC4(CC3)OC(=O)NC4(C)C)CC2)n1 (single isomer, unassigned) [10-5 Isomer 1] . Does its EC50 lie strictly below 200 nM?
Response: NOT MET

Prompt: Consider Cc1noc(N2CC3CC(N4CCC5(CC4)CNC(=O)C5)CC2C3)n1 (single isomer, unassigned) [11-2 Isomer 2] . Does its EC50 lie strictly below 200 nM?
Response: NOT MET

Prompt: Consider Cc1noc(N2CCCC(N3CCC(N4CCCC4c4cnn(C)c4)CC3)CC2)n1 (single isomer, unassigned) [10-10 Isomer 1b] . Does its EC50 lie strictly below 200 nM?
Response: NOT MET
